target desc: human μ-opiate receptor (Homo sapiens)
Sequence (P35372 whole entry): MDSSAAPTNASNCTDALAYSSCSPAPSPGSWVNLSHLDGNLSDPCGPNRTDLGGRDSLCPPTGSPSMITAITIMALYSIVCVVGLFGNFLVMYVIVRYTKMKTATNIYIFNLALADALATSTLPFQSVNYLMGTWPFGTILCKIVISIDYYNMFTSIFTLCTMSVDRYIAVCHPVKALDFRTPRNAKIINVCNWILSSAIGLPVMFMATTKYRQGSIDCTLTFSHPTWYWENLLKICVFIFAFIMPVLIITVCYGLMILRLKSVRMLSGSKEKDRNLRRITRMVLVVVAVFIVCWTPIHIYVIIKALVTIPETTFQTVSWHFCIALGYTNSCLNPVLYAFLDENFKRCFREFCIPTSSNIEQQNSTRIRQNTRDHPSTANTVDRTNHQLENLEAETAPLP
assay summary: Affinity for the human μ-opiate receptor ([3H]-naloxone displacement, SPA, CHO-K1 membrane preparation)
Type: binding
protocol conditions: 1 μM test substance; inhibition of specific [3H]-naloxone binding; read-out: μ-Opioid receptor, % inhibition [1 μM]
Counter-ions that a name gives are not always drawn.
Parameter: inhibition at 1 µM. Scope: all listed entries.
State just the number; it will be interpreted in %.

molecule	endpoint	assay result
CN(C)C(c1cccc(F)c1)C1CCC(CCCO)CC1 (stereo not shown)	inhibition at 1 µM	31
CN(C)C(c1ccc(Cl)cc1)C1CCC(O)CC1 (stereo not shown)	inhibition at 1 µM	43
CN(C)C(CCc1ccccc1)C1CCC(CO)CC1 (stereo not shown)	inhibition at 1 µM	32
CCOC(=O)C=C1CCC(C(c2ccc(F)cc2)N(C)C)CC1 (stereo not shown)	inhibition at 1 µM	35
COc1ccc(NC(=O)NC2CCC(C(c3ccccc3)N(C)C)CC2)cc1 (stereo not shown)	inhibition at 1 µM	92
CCOC(=O)CC1CCC(C(c2ccc(F)cc2)N(C)C)CC1 (stereo not shown)	inhibition at 1 µM	34
COc1ccc(CNC2CCC(C(c3ccccc3)N(C)C)CC2)cc1 (stereo not shown) [compound 90, dihydrochloride]	inhibition at 1 µM	94
CN(C)C(c1ccc(Cl)cc1)C1CCC(O)(CCc2ccccc2)CC1 (stereo not shown)	inhibition at 1 µM	81
CN(C)C(c1ccccc1)C1CCC(CCCO)CC1 (stereo not shown)	inhibition at 1 µM	45

The observed inhibition at 1 µM for CN(C)C(c1ccc(Cl)cc1)C1CCC(CCN)CC1 (stereo not shown) when tested with human μ-opiate receptor (Homo sapiens) stands at 62

* * *

Parameter: inhibition at 10 µM. Scope: all listed entries.
target desc: Serotonin (5HT) reuptake (Rattus norvegicus)
Construct: synaptosomes are freshly isolated from areas of rat brain; from tissue; host or cells: rat brain synaptosomes (P2 fraction)
assay summary: Serotonin (5HT) reuptake inhibition in rat brain synaptosomes (P2 fraction)
Format: biochemical
protocol conditions: read-out: Serotonin reuptake, % inhibition [10 μM]
Counter-ions that a name gives are not always drawn.
State just the number; it will be interpreted in %.

molecule	assay result
CCOC(=O)CC1CCC(C(c2ccccc2)N(C)C)CC1 (stereo not drawn) [compound 124]	85

Per the record, CC(Cc1c[nH]c2ccccc12)NC1CCC(C(c2ccccc2)N(C)C)CC1 (stereo not drawn) [compound 88, hydrochloride] has inhibition at 10 µM of 88

Per the record, CCOC(=O)CC1CCC(C(c2ccc(F)cc2)N(C)C)CC1 (stereo not drawn) [compound 127] has inhibition at 10 µM of 90

Per the record, COc1ccc(NC(=O)NC2CCC(C(c3ccccc3)N(C)C)CC2)cc1 (stereo not drawn) [compound 82] has inhibition at 10 µM of 98

Per the record, CN(C)C(c1cccc(F)c1)C1CCC(CCN)CC1 (stereo not drawn) [compound 54] has inhibition at 10 µM of 94

Per the record, CN(C)C(c1ccc(Cl)cc1)C1CCC(CCN)CC1 (stereo not drawn) [compound 66] has inhibition at 10 µM of 96

Per the record, CN(C)C(c1ccc(Cl)cc1)C1CCC(N)CC1 (stereo not drawn) [compound 23] has inhibition at 10 µM of 64

Per the record, CN(C)C(c1ccccc1)C1CCC(NC(=O)Nc2ccccc2)CC1.Cl (stereo not drawn) [compound 78, hydrochloride] has inhibition at 10 µM of 87

Per the record, CN(C)C(c1ccccc1)C1CCC(NS(=O)(=O)c2ccccc2)CC1 (stereo not drawn) [compound 110, hydrochloride] has inhibition at 10 µM of 86

* * *

target desc: Noradrenaline (NA) reuptake (Rattus norvegicus, UniProt Q63380)
Construct: synaptosomes are freshly isolated from areas of rat brain; from tissue; host or cells: rat hypothalamus synaptosomes (P2 fraction)
Sequence (Q63380 1-617): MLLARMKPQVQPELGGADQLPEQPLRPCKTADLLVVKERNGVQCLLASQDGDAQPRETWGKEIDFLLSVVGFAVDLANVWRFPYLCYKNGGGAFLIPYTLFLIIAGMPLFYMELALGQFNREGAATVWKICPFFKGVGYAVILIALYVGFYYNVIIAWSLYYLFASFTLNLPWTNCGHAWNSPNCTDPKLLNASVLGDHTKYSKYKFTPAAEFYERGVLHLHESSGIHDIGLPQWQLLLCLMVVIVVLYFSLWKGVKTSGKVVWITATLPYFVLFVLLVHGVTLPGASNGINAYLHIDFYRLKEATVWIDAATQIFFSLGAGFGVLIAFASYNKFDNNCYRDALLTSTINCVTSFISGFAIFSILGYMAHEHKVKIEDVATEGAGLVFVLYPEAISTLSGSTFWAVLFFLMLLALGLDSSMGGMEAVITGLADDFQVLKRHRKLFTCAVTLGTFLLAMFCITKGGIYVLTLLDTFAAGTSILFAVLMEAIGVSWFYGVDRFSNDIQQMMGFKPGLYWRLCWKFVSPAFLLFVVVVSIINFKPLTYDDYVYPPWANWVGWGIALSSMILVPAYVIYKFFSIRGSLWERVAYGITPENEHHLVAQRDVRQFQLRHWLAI
assay summary: Noradrenaline (NA) reuptake inhibition in rat brain synaptosomes (hypothalamus, P2 fraction)
Type: biochemical
protocol conditions: read-out: NA reuptake, % inhibition [10 μM]
Counter-ions that a name gives are not always drawn.
// thresholds for inhibition at 10 µM classes: group 1 = under 80%, group 2 = from 80% up to 90%, group 3 = 90% and over

molecule	class name
CCOC(=O)CCC1CCC(C(c2ccccc2)N(C)C)CC1 (stereo not shown)	group 2
CCOC(=O)C=CC1CCC(C(c2cccc(F)c2)N(C)C)CC1 (stereo not shown)	group 3
COCc1noc(C(=O)NCCC2CCC(C(CCc3ccccc3)N(C)C)CC2)n1 (stereo not shown)	group 3
CN(C)C(c1ccccc1)C1CCC(NCc2ccc(F)cc2)CC1 (stereo not shown) [compound 91, hydrochloride]	group 3
CN(C)C(c1ccccc1)C1CCC(NS(=O)(=O)c2ccccc2)CC1 (stereo not shown) [compound 110, hydrochloride]	group 1

Band for CN(C)C(c1ccccc1)C1CCC(C=O)CC1 (stereo not shown) ?
group 2

Band for COc1ccc(NC2CCC(C(c3ccccc3)N(C)C)CC2)cc1 (stereo not shown) [compound 89, hydrochloride] ?
group 2

Band for CN(C)C(c1cccs1)C1CCC(N)CC1 (stereo not shown) ?
group 2

Band for CN(C)C(c1cccs1)C1CCC(O)CC1 (stereo not shown) ?
group 1

* * *

target desc: UniProt P35372
assay summary: Affinity for the human μ-opiate receptor ([3H]-naloxone displacement, SPA, CHO-K1 membrane preparation)
Type: binding
protocol conditions: read-out: μ-Opioid receptor, % inhibition [1 μM]
Quick rule for you: inhibition at 1 µM at 90% or higher means label 1, lower means label 0.

Quick check: does CN(C)C(c1ccc(F)cc1)C1CCC(CCNC(=O)c2ccc3ccccc3c2)CC1 (centres unmarked) have inhibition at 1 µM greater than or equal to 90%?
label 0

Quick check: does CN(C)C(c1cccs1)C1CCC(NC(=O)c2cccnc2Oc2ccc(Cl)cc2)CC1 (centres unmarked) have inhibition at 1 µM greater than or equal to 90%?
label 0

Quick check: does CCn1nc(C)c(Br)c1C(=O)NCC1CCC(C(c2ccccc2)N(C)C)CC1 (centres unmarked) have inhibition at 1 µM greater than or equal to 90%?
label 0

Quick check: does CN(C)C(c1cccs1)C1CCC(NC(=O)c2csc(-c3ccc4c(c3)CCO4)n2)CC1 (centres unmarked) have inhibition at 1 µM greater than or equal to 90%?
label 0

Quick check: does CN(C)C(c1cccs1)C1CCC(NC(=O)c2ccc(F)c(C(F)(F)F)c2)CC1 (centres unmarked) have inhibition at 1 µM greater than or equal to 90%?
label 1

Quick check: does CN(C)C(c1ccccc1)C1CCC(NC(=O)c2cc(F)c(F)cc2F)CC1 (centres unmarked) have inhibition at 1 µM greater than or equal to 90%?
label 1

Quick check: does CN(C)C(c1ccc(F)cc1)C1CCC(CCNC(=O)c2ccccc2F)CC1 (centres unmarked) have inhibition at 1 µM greater than or equal to 90%?
label 0

* * *

target desc: human μ-opiate receptor (Homo sapiens)
assay summary: Affinity for the human μ-opiate receptor ([3H]-naloxone displacement, SPA, CHO-K1 membrane preparation)
Assay type: binding
protocol conditions: read-out: μ-Opioid receptor, Ki
Structures can show the parent of a compound that is named as a salt.
Please note: Ki exactly at 0.01 µM is FALSE. Only values below 0.01 µM get TRUE.

Field: example entries. Status: answers known.
molecule	class name
CN(C)C(c1ccccc1)C1CCC(NC(=O)Nc2cccc3ccccc23)CC1 (centres unmarked) [compound 73]	FALSE
Cc1ccccc1C(=O)NCCC1CCC(C(c2ccccc2)N(C)C)CC1 (single isomer, unassigned) [compound 418]	FALSE
CC(Cc1c[nH]c2ccccc12)NC1CCC(C(c2ccccc2)N(C)C)CC1 (centres unmarked) [compound 88, hydrochloride]	TRUE
COc1cccc(CC(=O)NCCC2CCC(C(c3cccc(F)c3)N(C)C)CC2)c1 (centres unmarked) [compound 453]	FALSE
CN(C)C(c1ccccc1)C1CCC(CCNC(=O)c2csc(-c3ccccc3)n2)CC1 (centres unmarked) [compound 463]	TRUE

Ki under 0.01 µM? Item: COc1c(C(=O)NC2CCC(C(c3cccs3)N(C)C)CC2)csc1Cl (centres unmarked) [compound 195]
FALSE

Ki under 0.01 µM? Item: CN(C)C(c1ccccc1)C1CCC(NC(=O)c2cccc([N+](=O)[O-])c2)CC1 (centres unmarked) [compound 275]
FALSE

Ki under 0.01 µM? Item: CN(C)C(c1ccccc1)C1CCC(CCNC(=O)c2cc(F)cc(F)c2)CC1 (centres unmarked) [compound 433]
TRUE

* * *

target desc: Serotonin (5HT) reuptake (Rattus norvegicus, UniProt P31652)
Construct: synaptosomes are freshly isolated from areas of rat brain; from tissue; host or cells: rat brain synaptosomes (P2 fraction)
Sequence (P31652 whole entry): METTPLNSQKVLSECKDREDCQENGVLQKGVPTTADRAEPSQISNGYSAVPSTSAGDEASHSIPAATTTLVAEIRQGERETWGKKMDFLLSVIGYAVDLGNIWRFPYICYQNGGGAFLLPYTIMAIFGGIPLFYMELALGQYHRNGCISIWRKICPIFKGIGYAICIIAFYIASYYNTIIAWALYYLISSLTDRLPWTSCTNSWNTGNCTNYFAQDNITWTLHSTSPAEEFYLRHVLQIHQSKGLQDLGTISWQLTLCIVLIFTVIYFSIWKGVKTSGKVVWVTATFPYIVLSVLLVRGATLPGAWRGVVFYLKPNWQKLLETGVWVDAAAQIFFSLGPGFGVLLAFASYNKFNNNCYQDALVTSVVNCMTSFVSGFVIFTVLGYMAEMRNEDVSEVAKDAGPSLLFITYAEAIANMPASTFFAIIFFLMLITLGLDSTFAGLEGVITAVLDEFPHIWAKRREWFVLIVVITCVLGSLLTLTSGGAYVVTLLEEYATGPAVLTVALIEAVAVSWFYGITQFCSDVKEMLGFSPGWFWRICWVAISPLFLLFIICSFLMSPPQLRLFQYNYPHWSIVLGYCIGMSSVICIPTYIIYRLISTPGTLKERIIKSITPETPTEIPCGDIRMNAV
assay summary: Serotonin (5HT) reuptake inhibition in rat brain synaptosomes (P2 fraction)
Type: biochemical
protocol conditions: read-out: Serotonin reuptake, % inhibition [10 μM]
Structures can show the parent of a compound that is named as a salt.
endpoint: inhibition at 10 µM
Please provide the amount together with its unit, number first.

The following compounds have reported results that may help.
compound	target desc	endpoint	assay result
CC(=O)N(c1ccccc1)C1CCC(C(c2ccccc2)N(C)C)CC1 (centres unmarked) [compound 96, hydrochloride]	Serotonin (5HT) reuptake (Rattus norvegicus, UniProt P31652)	inhibition at 10 µM	83%
COc1ccc(N(C(C)=O)C2CCC(C(c3ccccc3)N(C)C)CC2)cc1 (centres unmarked) [compound 99, hydrochloride]	Serotonin (5HT) reuptake (Rattus norvegicus, UniProt P31652)	inhibition at 10 µM	83%
COc1ccc(NC2CCC(C(c3ccccc3)N(C)C)CC2)cc1 (centres unmarked) [compound 89, hydrochloride]	Serotonin (5HT) reuptake (Rattus norvegicus, UniProt P31652)	inhibition at 10 µM	73%

Per the record, CN(C)C(CCc1ccccc1)C1CCC(CCCO)CC1 (centres unmarked) [compound 143] has inhibition at 10 µM of 90%

Per the record, CN(C)C(c1ccccc1)C1CCC(NS(=O)(=O)c2ccc(Cl)cc2)CC1 (centres unmarked) [compound 106, hydrochloride] has inhibition at 10 µM of 83%
